Attribution: ChEMBL document CHEMBL3988442

# Test system: Wolbachia pipientis
# experiment: Anti-Wolbachia Cell-Based Screen
# Type: functional
# Design: scale not given: in the data most compounds retested in dose-response had high values
# run.parameters: 5 µM
Screen size: about 48,000 compounds; about 13,000 (27%) showed an effect of 50% or more. The list shows a part of the results.
reported.property: Percent Effect (%)
# number only, unit % dropped from output

Worked set:
CS(=O)(=O)N1CCC(c2nnc(CN3CCCC3)n2C2CC2)CC1; -12.66
CN1CCc2ccc(NCc3cscn3)cc2C1=O; 26.59
O=C(CCCNC(=O)NCC1CCCO1)Nc1ccc(Cl)cc1 (stereo unspecified); 100.3
Cc1cc(-c2cccc(C(=O)O)c2)nc(C2CCN(C(C)C)CC2)n1; 102.4

Write down the reported Percent Effect of Cc1cc(C(=O)N(Cc2c(C)nn(C)c2C)C(C)C)nc(C)n1 , test system: Wolbachia pipientis.
12.98

Provide value of Percent Effect for this record tested with Wolbachia pipientis: Cc1ccc(C(NC(=O)CC2CCN(C(C)C)CC2)C(=O)O)cc1 (stereo unspecified)
-11.69

Request body: readout Percent Effect, system Wolbachia pipientis, query Cc1nc(CN(C)Cc2cn[nH]c2-c2ccc(F)cc2)c[nH]1 . Return the value.
20.15

Please provide the recorded Percent Effect for CNS(=O)(=O)c1ccc(CNC(=O)NCC2CCCO2)cc1 (stereo unspecified) , tested on Wolbachia pipientis.
-4.659

Which Percent Effect is reported with Wolbachia pipientis for this entry: Cc1cc(-c2ccc(C(=O)O)cc2)nc(C2CCCN(C(C)C)C2)n1 (stereo unspecified) ?
2.794

Lab request: please report Percent Effect under test system Wolbachia pipientis for O=C(NCCCN1CCN(c2ncccn2)CC1)NCC1CCCO1 (stereo unspecified)
8.99

Find Percent Effect (Wolbachia pipientis) for the entry O=C(CCC1CCCO1)NCCCC(=O)Nc1ccc(Cl)cc1 (stereo unspecified)
132.9
